B1: AUP1 (parent)
chain: EGLLRFSSWPFSIQDVVQPLTLQV

# Variants of: B1
# Assay Info: protein stability index of a GFP-peptide fusion (GPS, HEK-293T) (PSI 1-6); higher = more stable;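 further: lentivirally expressed fusions sorted by FACS into six bins by GFP to DsRed ratio, PSI derived from sequencing read proportions per bin multiplied by bin number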
# Condition Info: c terminus: a fixed tail appended
Quantity: protein stability index

[[record]]
variant_code = "T21V"
assay_value = 2.81

[[record]]
variant_code = "V24C"
assay_value = 2.23

[[record]]
variant_code = "T21E"
assay_value = 2.9

[[record]]
variant_code = "V16S"
assay_value = 4.02

[[record]]
variant_code = "V17H"
assay_value = 3.15

[[record]]
variant_code = "V24P"
assay_value = 1.57

[[record]]
variant_code = "D15Y"
assay_value = 2.41

[[record]]
variant_code = "S7I"
assay_value = 3.04

[[record]]
variant_code = "L3V"
assay_value = 2.22

[[record]]
variant_code = "W9S"
assay_value = 1.73

[[record]]
variant_code = "S12M"
assay_value = 3.22

[[record]]
variant_code = "F6N"
assay_value = 1.4

[[record]]
variant_code = "D15I"
assay_value = 1.3

[[record]]
variant_code = "V24K"
assay_value = 2.17

[[record]]
variant_code = "F6P"
assay_value = 2.07

[[record]]
variant_code = "Q14T"
assay_value = 1.79

[[record]]
variant_code = "V17K"
assay_value = 2.35

[[record]]
variant_code = "D15E"
assay_value = 3.9

[[record]]
variant_code = "P10G"
assay_value = 1.88

[[record]]
variant_code = "L22S"
assay_value = 1.85

[[record]]
variant_code = "V24E"
assay_value = 2.06

[[record]]
variant_code = "L3C"
assay_value = 4.98

[[record]]
variant_code = "V16H"
assay_value = 3.18

[[record]]
variant_code = "P10Y"
assay_value = 3.85

[[record]]
variant_code = "W9M"
assay_value = 2.45

[[record]]
variant_code = "R5S"
assay_value = 2.64

[[record]]
variant_code = "I13R"
assay_value = 2.4

[[record]]
variant_code = "R5F"
assay_value = 3.67

[[record]]
variant_code = "S8F"
assay_value = 3.08

[[record]]
variant_code = "W9Y"
assay_value = 3.88

[[record]]
variant_code = "Q23Y"
assay_value = 2.82

[[record]]
variant_code = "S8T"
assay_value = 2.62

[[record]]
variant_code = "L22K"
assay_value = 1.76

[[record]]
variant_code = "L22V"
assay_value = 2.62

[[record]]
variant_code = "S8A"
assay_value = 2.17

[[record]]
variant_code = "Q23D"
assay_value = 1.81

[[record]]
variant_code = "F6W"
assay_value = 2.94

[[record]]
variant_code = "Q23C"
assay_value = 1.61

[[record]]
variant_code = "L20D"
assay_value = 1.98

[[record]]
variant_code = "R5T"
assay_value = 3.1

[[record]]
variant_code = "S12P"
assay_value = 2.66

[[record]]
variant_code = "V16I"
assay_value = 2.78

[[record]]
variant_code = "R5M"
assay_value = 1.56

[[record]]
variant_code = "V24N"
assay_value = 1.59

[[record]]
variant_code = "F11N"
assay_value = 1.85

[[record]]
variant_code = "V24M"
assay_value = 5.7

[[record]]
variant_code = "L20K"
assay_value = 1.19

[[record]]
variant_code = "G2H"
assay_value = 3.65

[[record]]
variant_code = "P10D"
assay_value = 2.04

[[record]]
variant_code = "V24D"
assay_value = 1.97

[[record]]
variant_code = "Q23E"
assay_value = 2.65

[[record]]
variant_code = "L22C"
assay_value = 1.85

[[record]]
variant_code = "L22D"
assay_value = 2.61

[[record]]
variant_code = "F11D"
assay_value = 1.04

[[record]]
variant_code = "R5D"
assay_value = 1.73

[[record]]
variant_code = "P19I"
assay_value = 2.96

[[record]]
variant_code = "Q23S"
assay_value = 1.4

[[record]]
variant_code = "L22I"
assay_value = 2.13

[[record]]
variant_code = "P10N"
assay_value = 2.05

[[record]]
variant_code = "L3E"
assay_value = 2.41

